target_under_test: human FPR2 (Homo sapiens (Human), UniProt P25090)
Sequence (P25090 whole entry): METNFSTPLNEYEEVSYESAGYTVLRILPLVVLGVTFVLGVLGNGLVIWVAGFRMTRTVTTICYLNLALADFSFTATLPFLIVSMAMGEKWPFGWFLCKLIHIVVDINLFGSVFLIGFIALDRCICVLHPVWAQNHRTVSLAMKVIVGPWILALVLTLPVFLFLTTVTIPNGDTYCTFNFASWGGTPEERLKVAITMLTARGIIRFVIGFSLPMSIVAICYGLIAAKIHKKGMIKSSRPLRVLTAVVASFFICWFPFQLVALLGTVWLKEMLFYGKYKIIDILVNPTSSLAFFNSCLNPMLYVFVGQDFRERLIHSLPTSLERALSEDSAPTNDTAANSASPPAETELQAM
assay_overview: FPR2 cyclic adenosine monophosphate (cAMP) assay
measurement_conditions: CHO cells overexpressing human FPR2; forskolin 5 µM; inhibition of cAMP production; read-out: hFPR2 cAMP2 EC50
measurement_label: EC50 (nM)
Write the answer as a number in nM, unit excluded.

Guide cases for EC50, answers given:
>  <compound>
COCCn1cccc(N2C[C@@H](c3c(F)cc(OC)cc3F)[C@H](NC(=O)c3ccc(Cl)cc3)C2=O)c1=O

>  <EC50 (nM)>
3.5

$$$$
>  <compound>
COc1cc(F)c([C@@H]2CN(c3nc(N4C[C@@H](C)N(C)[C@@H](C)C4)ccc3C#N)C(=O)[C@H]2NC(=O)c2ccc(OC(F)F)cc2)c(F)c1

>  <EC50 (nM)>
13

$$$$
>  <compound>
COCC(CO)n1cccc(N2C[C@@H](c3ccc(Cl)cc3)[C@H](NC(=O)c3ccc(OC(F)(F)F)cc3)C2=O)c1=O (stereo partly shown)

>  <EC50 (nM)>
4

$$$$
>  <compound>
COCCn1ncc(C)c(N2C[C@@H](c3c(F)cc(OC)cc3F)[C@H](NC(=O)c3ccc(OC(F)F)cc3)C2=O)c1=O [Example 472]

>  <EC50 (nM)>
1.2

$$$$
>  <compound>
CC(O)Cn1cccc(N2C[C@@H](c3ccc(Cl)cc3)[C@H](NC(=O)c3ccc(OC(F)F)cc3)C2=O)c1=O (stereo partly shown)

>  <EC50 (nM)>
6.3

$$$$

Could you now look at the following compound, please?
Requested field: EC50. Item: COCC(CO)n1ccc(C)c(N2C[C@@H](c3c(F)cc(OC)cc3F)[C@H](NC(=O)c3ccc(OC(F)F)cc3)C2=O)c1=O (stereo partly shown) [Example 426]
2.3

---

target_under_test: human FPR1 (Homo sapiens (Human), UniProt P21462)
Sequence (P21462 whole entry): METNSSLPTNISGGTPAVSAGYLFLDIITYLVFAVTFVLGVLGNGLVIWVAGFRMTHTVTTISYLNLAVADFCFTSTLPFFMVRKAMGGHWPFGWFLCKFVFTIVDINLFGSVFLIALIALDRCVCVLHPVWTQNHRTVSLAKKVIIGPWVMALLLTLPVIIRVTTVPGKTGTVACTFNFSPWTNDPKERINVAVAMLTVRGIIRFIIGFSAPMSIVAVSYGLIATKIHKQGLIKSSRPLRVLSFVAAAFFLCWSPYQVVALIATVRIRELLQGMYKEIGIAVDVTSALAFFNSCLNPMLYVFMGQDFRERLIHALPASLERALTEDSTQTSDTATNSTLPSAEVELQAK
assay_overview: FPR1 cyclic adenosine monophosphate (cAMP) assay
measurement_conditions: CHO cells overexpressing human FPR1; forskolin 10 µM; inhibition of cAMP production; read-out: hFPR1 cAMP EC50
measurement_label: EC50 (nM)
Write the answer as a number in nM, unit excluded.

Guide cases for EC50, answers given:
>  <compound>
CCn1cccc(N2C[C@@H](c3ccc(OC)cc3F)[C@H](NC(=O)c3ccc(OC(F)(F)F)cc3)C2=O)c1=O [Example 249]

>  <quantity_unit>
nM

>  <EC50>
13

$$$$
>  <compound>
COc1ccc([C@@H]2CN(c3c(C)ccn(CC4CC4)c3=O)C(=O)[C@H]2NC(=O)c2ccc(Cl)cc2)cc1 [Example 385]

>  <quantity_unit>
nM

>  <EC50>
1

$$$$
>  <compound>
COCC(CO)n1cccc(N2C[C@@H](c3ccc(OC)cc3F)[C@H](NC(=O)c3ccc(OC(F)(F)F)cc3)C2=O)c1=O (stereo partly shown) [Example 437]

>  <quantity_unit>
nM

>  <EC50>
1

$$$$
>  <compound>
COc1cc(F)c([C@@H]2CN(c3ccc(C)n(C)c3=O)C(=O)[C@H]2NC(=O)c2ccc(Cl)cc2)c(F)c1 [Example 140]

>  <quantity_unit>
nM

>  <EC50>
610

$$$$
>  <compound>
COc1cc(F)c([C@@H]2CN(c3cccc(C4CCN(C)CC4)n3)C(=O)[C@H]2NC(=O)c2ccc(OC(F)F)cc2)c(F)c1 [Example 525]

>  <quantity_unit>
nM

>  <EC50>
420

$$$$

Requested field: EC50. Item: COCCn1cccc(N2C[C@@H](c3ccc(OC)cc3F)[C@H](NC(=O)c3ccc(OC(F)(F)F)cc3)C2=O)c1=O [Example 53]
2.3

Requested field: EC50. Item: COc1cc(F)c([C@@H]2CN(c3nc(N4CCC4=O)ccc3F)C(=O)[C@H]2NC(=O)c2ccc(OC(F)F)cc2)c(F)c1 [Example 46]
2
